Reference source for all entries: the RNAGym collection of RNA variant scans (doi:10.1126/science.aae0568)

As shown below, each of these variants has a reported yeast fitness value.
B1: tRNA (parent)
chain: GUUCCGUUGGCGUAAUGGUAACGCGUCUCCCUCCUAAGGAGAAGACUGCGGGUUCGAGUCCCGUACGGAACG

# Variants of: B1
# Protocol details: yeast fitness relative to wild type (ratio to wild type); higher = fitter; tRNA-Arg(CCU), competitive growth, 37 C, YPD
This sample holds only a part of the variants without activity.

Example cases with answers are listed next.
GUUCAGUUGGCGUAAUGGUAACACGUCUCCCUCCUAAGCACAAGACUGCGGGUUCGAGUCCCGUACGGACCG [C5A G23A G39C G41C A70C] = ≤ 0.5
GGUCCGUUGGUGUAAUGGUAACACGUCUCCCUCCUAAGGAGAAGAUUGCGGGUACGAGUCCCGUACGGAACG [U2G C11U G23A C46U U54A] = ≤ 0.5
GUUCCGUUGGCGAAAUGGUAACGCGUCUCCCUCCUAAGGAGAAGACUGCGGGUUCGAGUCCUGUACGGAACG [U13A C62U] = 1.05
GUUCGGUUGGCGUAAUGGUAACGCGUCUCGCUGCUAUGGAGAAGACUGCGGGUUCGAGUCGCGUACGGAACG [C5G C30G C33G A37U C61G] = ≤ 0.5
GUUCCGUUGGCGUAAUGGUAACGCGUCUCCCUCCUAAGGAGCAGACUGCGGGUUCGUGUCCCGUACGGAACG [A42C A57U] = 0.688
GUUCCGUUGGCGUAAAGGUAAUGCGCCUCCCUCCUAAGGAGAAGACUGCGGGUUCGAGUCCCGUACAGAACG [U16A C22U U26C G67A] = ≤ 0.5

**Query** State the recorded yeast fitness for this entry: GUUCCGUUGACGUAACGGUAACGCGUCUCCCUCCCAAGGUGAAGACUGCGGGUUCGAGUCCCGUACGGAACG [G10A U16C U35C A40U]
**Result** ≤ 0.5

**Query** State the recorded yeast fitness for this entry: GUUCCGUUGGCGUAUUGGUAACGCGUCUCCCUCCUAACAAGACGACUGCGGGUUCGAGUGCCGUCCGGAACG [A15U G38C G39A A43C C60G A65C]
**Result** 0.559
